From: paper PMC7232187

log10 of CC50 at 72 h reference
Assay: Host cell toxicity by nuclei counting in the phenotypic high-content imaging assay
Conditions: mouse, C2C12 mouse myoblasts co-cultured with CA-I/72 T. cruzi
Answers are given as log10 of CC50 at 72 h in nM.

Use these answered entries as a reference point.
[[record]]
molecule = "C=C(NNC(=S)NNC(=S)Nc1ccccc1Cl)c1ccccn1 [348U87]"
reported_endpoint = "log10 of CC50 at 72 h"
observed_measurement = 2.91

[[record]]
molecule = "N#Cc1ccc(Cn2cncc2CN2CCN(c3cccc(Cl)c3)C(=O)C2)cc1Oc1ccccc1 [Prenyl-IN-1]"
reported_endpoint = "log10 of CC50 at 72 h"
observed_measurement = 2.26

[[record]]
molecule = "Cc1cccc2nc3cccc(C(=O)NCCNCCNCCNC(=O)c4cccc5nc6cccc(C)c6nc45)c3nc12 [XR 5944]"
reported_endpoint = "log10 of CC50 at 72 h"
observed_measurement = 1.66


Request: Give the measured log10 of CC50 at 72 h for C=CC(=O)N1CC[C@@H](Oc2nc(Nc3ccc(N4CCC(N5CCN(C)CC5)CC4)cc3)c(C(N)=O)nc2CC)C1 [ASP-8273, naquotinib]
Response: 2.71

Request: Give the measured log10 of CC50 at 72 h for COc1ccccc1N1CCN(CCCCn2c(=O)sc3cc(CCN4CCC(C(=O)c5ccc(F)cc5)CC4)ccc32)CC1
Response: 3.50
